Test system: COLO 205 colon
Assay: NCI tumour cell line growth inhibition, 48 h
This listing pairs compounds with measured TGI.

Worked cases, TGI given:
# Compound, TGI
data = [
    ("COc1ccc2sc(-n3nc4ccccc4c3Nc3nc4ccc(OC)cc4s3)nc2c1", "> 63.9 µM"),
    ("N#C/C(=C\\NC(=S)c1ccncc1)c1nc2ccccc2s1", "> 100 µM"),
    ("COC(=O)CCCC(=O)O", "> 100 µM"),
]

With those in mind, consider the next compound.
QUERY: GET TGI | system: COLO 205 colon | item: O=C(O)c1cnc2[nH]ccn2c1=O
RESULT: > 100 µM

The reported numbers originate from PubChem BioAssay (NCI).
